From: patent US20160083466A1

Target: T1, human IL-25 expressed with a C-terminal myc-myc-hexahistidine tag (human)
T1 construct: also called hIL-25-MMH; Human IL-25-MMH
T1 chain: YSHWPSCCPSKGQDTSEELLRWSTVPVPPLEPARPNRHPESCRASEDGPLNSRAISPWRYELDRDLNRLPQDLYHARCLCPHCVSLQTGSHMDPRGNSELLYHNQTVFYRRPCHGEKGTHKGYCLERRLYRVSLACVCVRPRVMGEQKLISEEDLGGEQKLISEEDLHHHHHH
Assay: BLI Octet, hIL-25-MMH captured on anti-Penta-His sensor, 25C
experimental.readout: 50 ug/mL mAb-1 Binding (nm)
Give a bare numeral; the unit nm is implied.

H4H10871P (antibody, human IgG4, V domains shown, H4H prefix = human IgG4 Fc) VH: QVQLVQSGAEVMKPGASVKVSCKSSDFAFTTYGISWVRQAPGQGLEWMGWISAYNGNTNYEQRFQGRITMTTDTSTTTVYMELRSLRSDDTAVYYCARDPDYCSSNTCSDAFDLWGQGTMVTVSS VL: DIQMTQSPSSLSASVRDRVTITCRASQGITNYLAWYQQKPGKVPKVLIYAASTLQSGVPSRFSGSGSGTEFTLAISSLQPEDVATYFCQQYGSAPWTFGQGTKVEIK ... 1.12

Next binder, please.
Exercise: Fill in: 50 ug/mL mAb-1 Binding (nm) of H4H10905P (antibody, human IgG4, V domains shown, H4H prefix = human IgG4 Fc) VH: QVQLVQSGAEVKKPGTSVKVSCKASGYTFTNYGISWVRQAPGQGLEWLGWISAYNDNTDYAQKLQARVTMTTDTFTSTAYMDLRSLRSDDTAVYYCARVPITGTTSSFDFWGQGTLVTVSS VL: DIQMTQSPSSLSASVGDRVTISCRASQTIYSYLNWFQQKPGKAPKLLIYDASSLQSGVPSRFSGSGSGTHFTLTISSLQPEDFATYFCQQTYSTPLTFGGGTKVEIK is ___
Key: 1.59
